System: Radio-sensitive colorectal cancer tissue of patient (case C87)
Procedure Details: In vivo/ex vivo imaging and phage elution of Cy5.5-labeled peptide-expressing phages in mouse model transplanted with patient's colorectal cancer tissue (Example 4)
Set-up: species or system nude mouse
Run Conditions: case C87, non-irradiated population; extracted cancer tissue
Hi! Just check whether pfu/mg (concentration of eluted phages relative to weight of cancer tissue) is below 4 pfu/mg. Below gives fulfilled, equal or above gives not fulfilled.

Asked: I wonder whether AFKSPSG [E14] has pfu/mg (concentration of eluted phages relative to weight of cancer tissue) below 4 pfu/mg. Can you tell?
Given back: fulfilled

Asked: I wonder whether TAFSLGK [E6] has pfu/mg (concentration of eluted phages relative to weight of cancer tissue) below 4 pfu/mg. Can you tell?
Given back: not fulfilled

Asked: I wonder whether LTGSVNK [E10] has pfu/mg (concentration of eluted phages relative to weight of cancer tissue) below 4 pfu/mg. Can you tell?
Given back: fulfilled

Asked: I wonder whether HKTEHRS [E18] has pfu/mg (concentration of eluted phages relative to weight of cancer tissue) below 4 pfu/mg. Can you tell?
Given back: not fulfilled

Asked: I wonder whether KISLPHN [E13] has pfu/mg (concentration of eluted phages relative to weight of cancer tissue) below 4 pfu/mg. Can you tell?
Given back: fulfilled

Next:
Asked: I wonder whether AIKNTKS [E8] has pfu/mg (concentration of eluted phages relative to weight of cancer tissue) below 4 pfu/mg. Can you tell?
Given back: not fulfilled

Asked: I wonder whether VQMPAHS [E4] has pfu/mg (concentration of eluted phages relative to weight of cancer tissue) below 4 pfu/mg. Can you tell?
Given back: not fulfilled

Asked: I wonder whether QQTKNYY [E7] has pfu/mg (concentration of eluted phages relative to weight of cancer tissue) below 4 pfu/mg. Can you tell?
Given back: not fulfilled

Asked: I wonder whether TVRTSAV [E9] has pfu/mg (concentration of eluted phages relative to weight of cancer tissue) below 4 pfu/mg. Can you tell?
Given back: not fulfilled

Asked: I wonder whether RSTGSSC [E16] has pfu/mg (concentration of eluted phages relative to weight of cancer tissue) below 4 pfu/mg. Can you tell?
Given back: fulfilled

Asked: I wonder whether SHMEYPR [A1, 7-amino-acid loop peptide expressed on M13 phage, tested as Cy5.5-labeled phage] has pfu/mg (concentration of eluted phages relative to weight of cancer tissue) below 4 pfu/mg. Can you tell?
Given back: not fulfilled

Asked: I wonder whether YVSKNNS [E17] has pfu/mg (concentration of eluted phages relative to weight of cancer tissue) below 4 pfu/mg. Can you tell?
Given back: not fulfilled

Asked: I wonder whether NTGSPYE [A2, 7-amino-acid loop peptide expressed on M13 phage, tested as Cy5.5-labeled phage] has pfu/mg (concentration of eluted phages relative to weight of cancer tissue) below 4 pfu/mg. Can you tell?
Given back: fulfilled

Asked: I wonder whether DETSGQI [E12] has pfu/mg (concentration of eluted phages relative to weight of cancer tissue) below 4 pfu/mg. Can you tell?
Given back: not fulfilled

Asked: I wonder whether LKTSGTY [E15] has pfu/mg (concentration of eluted phages relative to weight of cancer tissue) below 4 pfu/mg. Can you tell?
Given back: not fulfilled

Asked: I wonder whether MNFIQKN [E11] has pfu/mg (concentration of eluted phages relative to weight of cancer tissue) below 4 pfu/mg. Can you tell?
Given back: not fulfilled

Asked: I wonder whether GGNSNQR [E5] has pfu/mg (concentration of eluted phages relative to weight of cancer tissue) below 4 pfu/mg. Can you tell?
Given back: not fulfilled

# credit: patent US10393744B2
